System: EC-GI-10 (Esophageal Squamous Cell Carcinoma);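 note: after 72 h of two-drug dosing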
Test: Bliss excess, mean over the matrix (fraction); higher = more synergy
readout: Bliss excess
Number only, no unit.

Request: Item under review: CC1(C)CCC(CN2CCN(c3ccc(C(=O)NS(=O)(=O)c4ccc(NCC5CCOCC5)c([N+](=O)[O-])c4)c(Oc4cnc5[nH]ccc5c4)c3)CC2)=C(c2ccc(Cl)cc2)C1 [Venetoclax] + COc1cc(Nc2ncc3c(n2)-c2ccc(Cl)cc2C(c2c(F)cccc2OC)=NC3)ccc1C(=O)O [Alisertib] (first compound max 1 µM, 7x7, partner max 10 µM) . Reported Bliss excess?
Response: 0.0164

Request: Item under review: COc1nnc2ccc(N3CCC(c4ccc(OCCN5CCN(C)C(=O)[C@H]5C)cc4)CC3)nn12 [AZD5153] + C[C@@H]1COCCN1C2=NC(=NC(=C2)C3(CC3)[S@](=N)(=O)C)C4=C5C=CNC5=NC=C4 [AZD6738] (first compound max 1 µM, 7x7, partner max 10 µM) . Reported Bliss excess?
Response: 0.0203

Request: Item under review: COc1nnc2ccc(N3CCC(c4ccc(OCCN5CCN(C)C(=O)[C@H]5C)cc4)CC3)nn12 [AZD5153] + CCN(CCO)CCCOc1ccc2c(Nc3cc(CC(=O)Nc4cccc(F)c4)[nH]n3)ncnc2c1 [AZD2811] (first compound max 1 µM, 7x7, partner max 1 µM) . Reported Bliss excess?
Response: -0.0142
